System: Lolium rigidum
assay.comment: Post-emergence herbicidal action against LOLRI
Assay type: in vivo
test.settings: 20 g a.i./ha, visual rating about 3 weeks after treatment
property.measured: Herbicidal action against [%] LOLRI (%)
The answer is to be given in %; state only the numeric part.

// solved cases for Herbicidal action against [%] LOLRI follow
>>> number("C=CC1(C(=O)NC2C=CC(C(=O)OCCSC)C2)CC(c2cc(C)cc(F)c2)=NO1 (mixture of isomers) [Example I-47]")
80
>>> number("COC1(C(=O)NC2C=CC(C(=O)OCCSC)C2)CC(c2cc(C)cc(F)c2)=NO1 (centres unmarked)")
90
>>> number("CSCCOC(=O)C1C=CC(NC(=O)C2(C)CC(c3cccc(F)c3)=NO2)C1 (centres unmarked)")
100
>>> number("CSCCOC(=O)C1C=CC(NC(=O)C2(C)CC(c3cccc(C#N)c3)=NO2)C1 (centres unmarked)")
80
>>> number("C=CCSCCOC(=O)C1C=CC(NC(=O)C2(OC)CC(c3cc(F)cc(F)c3)=NO2)C1 (centres unmarked)")
90

Q: State its Herbicidal action against [%] LOLRI on Lolium rigidum: CSCCOC(=O)C1C=CC(NC(=O)C2(CF)CC(c3cc(F)cc(C#N)c3)=NO2)C1 (centres unmarked)
Ans: 80

Q: State its Herbicidal action against [%] LOLRI on Lolium rigidum: CSCCOC(=O)C1C=CC(NC(=O)C2(C)CC(c3cc(Cl)cc(C#N)c3)=NO2)C1 (centres unmarked) [Example I-72]
Ans: 90

Q: State its Herbicidal action against [%] LOLRI on Lolium rigidum: CC1(C(=O)NC2C=CC(C(=O)OCCSCc3ccc(F)cc3)C2)CC(c2cc(F)cc(F)c2)=NO1 (centres unmarked)
Ans: 90
